Catalogue of IC50 values
# STUDY_SYSTEM: PHD2_181-402 (Homo sapiens, UniProt Q9GZT9)
# Sequence (Q9GZT9 181-402): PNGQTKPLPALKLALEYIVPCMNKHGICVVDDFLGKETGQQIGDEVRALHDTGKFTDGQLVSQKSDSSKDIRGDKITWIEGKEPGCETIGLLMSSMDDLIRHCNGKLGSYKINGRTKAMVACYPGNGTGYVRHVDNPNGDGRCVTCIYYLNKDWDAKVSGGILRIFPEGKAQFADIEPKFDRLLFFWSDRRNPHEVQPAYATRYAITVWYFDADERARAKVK
# ASSAY_DETAILS: PHD2_181-402 inhibition assay (bioluminescent succinate detection, Succinate-Glo)
# Format: biochemical
# CONDITION: read-out: True IC50
Write the numeric value and append its unit.

Sample answers from the record:
{"columns": ["COMPOUND", "STUDY_SYSTEM", "IC50"],
 "data": [
  ["CCCCCC(=O)O [Hexanoate]", "PHD2_181-402 (Homo sapiens, UniProt Q9GZT9)", "17 mM"],
  ["CCCC(=O)O [Butyrate]", "PHD2_181-402 (Homo sapiens, UniProt Q9GZT9)", "5.3 mM"]
]}

Then this compound:
Lookup: For CCCCC(=O)O [Valerate] , write its IC50.
Found: 16 mM
